- System: Differentiation of primary naïve T-cells into Th17 cells
- EXPERIMENT: Inhibition of Th17 differentiation of primary naïve T-cells by halofuginone analogs
- Format: cell-based, murine
- Set-up: key: “+++” vs. “++” vs. “+” in general denotes ˜4-fold differences in potency; “+++” vs. “++” vs. “+” in general denotes ˜4-fold differences in potency; “+++” vs. “++” vs. “+” in general denotes ˜4-fold differences in potency; “−” denotes no activity at any dose tested, up to 1000× the effective dose of halofuginone
- TEST_SETTINGS: T-cell receptor stimulation+IL-6+TGFb

MOLECULE: C#Cc1cc2ncn(CC(=O)CC3NCCCC3O)c(=O)c2cc1Cl (stereo not shown) [Compound 7]
Inhibition of Th17 differentiation: +++

MOLECULE: O=C(CC1NCCCC1O)Cn1cnc2ccccc2c1=O (stereo not shown) [Compound 3, febrifugine]
Inhibition of Th17 differentiation: ++

MOLECULE: O=C(CC1NCCCC1O)Cn1cnc2cc(Br)c(Cl)cc2c1=O (stereo not shown) [Compound 1]
Inhibition of Th17 differentiation: +++

MOLECULE: CC(C)(C)OC(=O)N1CCCC(O)C1CC(=O)Cn1cnc2cc(Br)c(Cl)cc2c1=O (stereo not shown) [Compound 9]
Inhibition of Th17 differentiation: −
